src = PubChem BioAssay AID1159580

- test_details: chemical genetic growth profiling, strain panel (AID 1159580);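 note: tested at 20 µM; growth read once vehicle control cultures reached saturation at 30 °C; 1 = growth at the plate median or of vehicle wells; lower values mean less growth of the strain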
- assay_setup: S. cerevisiae deletion strains, growth OD, locus YNL307C, strain MCK1
Among all 5,500 compounds or so, about 2,000 (36%) were called active. Inconclusive results (about 18%) are left out. Cut-off read from the data, not from the text of the source: active = normalized growth mostly below about 0.91 (no sharp cut-off); inconclusive = no clear call, values can overlap the other calls; inactive = mostly above about 0.92. Some of the results follow.
Lab note: assign the record to one of active, inactive

-- ask Write down the call the test reported for this compound. Item: `CC/C(=C(/CC)c1ccc(O)cc1)c1ccc(O)cc1`
-- reply inactive

-- ask GET /call?item= NC(=O)NCCCC(N)C(=O)O (stereo not given) returns the recorded outcome of this test.
-- reply inactive

-- ask I'd appreciate the recorded outcome for NS(=O)(=O)c1cc(C2(O)NC(=O)c3ccccc32)ccc1Cl (stereo not given) from this test.
-- reply inactive

-- ask Outcome logged for CC1CCC2(OC1)OC1CC3C4CC[C@H]5C[C@@H](O)CC[C@]5(C)C4CC(=O)[C@]3(C)C1C2C (stereo not given in full) in this assay:
-- reply inactive

-- ask Status in this test for C[C@@H]1CC[C@@]2(OC1)O[C@H]1CC3C4CC[C@H]5C[C@@H](O)CC[C@]5(C)C4CC[C@]3(C)[C@H]1[C@@H]2C (stereo not given in full) ?
-- reply inactive

-- ask # lookup: test call for CCC(N)C(O)c1ccc(O)c(O)c1 (stereo not given)
-- reply inactive

-- ask State the result this test recorded for CC1CC[C@@]2(OC1)O[C@H]1CC3C4CC[C@@H]5C[C@@H](O)CC[C@]5(C)C4CC[C@]3(C)[C@H]1[C@@H]2C (stereo not given in full) .
-- reply inactive

-- ask State the result this test recorded for `CC(C)(O)[C@@H]1Cc2cc3ccc(=O)oc3cc2O1` .
-- reply inactive

-- ask How was CC(C)C1COc2cc3oc(=O)ccc3cc2O1 (stereo not given) classified in this test?
-- reply active

-- ask GET /call?item= CC1CC[C@]2(NC1)O[C@H]1CC3C4CC[C@H]5C[C@@H](O)CC[C@]5(C)C4CC[C@]3(C)[C@H]1[C@@H]2C (stereo not given in full) returns the recorded outcome of this test.
-- reply active

###

- test_details: chemical genetic growth profiling, strain panel (AID 1159580);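 note: tested at 20 µM; growth read once vehicle control cultures reached saturation at 30 °C; 1 = growth at the plate median or of vehicle wells; lower values mean less growth of the strain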
- assay_setup: S. cerevisiae deletion strains, growth OD, locus YGL078C, strain dbp3, active compounds read low
Screen size: about 5,500 compounds; about 2,000 (36%) were called active. Another 18% or so got no clear call; they are omitted. The list shows a part of the results.
measured_parameter: normalized growth
I'd appreciate a reply containing only the number, no unit.

-- ask Which value of normalized growth has been reported for `C=C[C@H]1CN2CC[C@H]1C[C@@H]2[C@@H](OC(=O)OCC)c1ccnc2ccc(OC)cc12` in the records?
-- reply 1.01

-- ask Fill in the blank: the reported normalized growth of `COc1cccc2c(C)cc(=O)[nH]c12` is ____.
-- reply 0.962

-- ask Query: normalized growth; subject: CCCC(C)(COC(N)=O)COC(=O)NC(C)C (centres undefined)
-- reply 0.981

-- ask Quick one: normalized growth for `COC(=O)c1c(C)cc(OC)cc1O` ?
-- reply 0.993

-- ask # input compound: CC1CC[C@@]2(OC1)O[C@H]1CC3C4CC[C@@H]5C[C@@H](O)CC[C@]5(C)C4CC[C@]3(C)[C@H]1[C@@H]2C (some centres undefined) ; wanted: its normalized growth
-- reply 1.02

-- ask Sample `Cc1[nH]ccc2c1[nH]c1cc(=O)ccc12` — what was its normalized growth?
-- reply 0.992

-- ask Recorded normalized growth of `CN(C)c1nc(N)c(C(=O)N=C(N)N)nc1Cl` , please.
-- reply 0.989

-- ask Can you share its normalized growth? I mean this compound: C[C@@H]1CC[C@@]2(NC1)O[C@H]1C[C@H]3C4CC=C5C[C@@H](O)CC[C@]5(C)C4CC[C@]3(C)C1[C@@H]2C (some centres undefined)
-- reply 0.898

-- ask Endpoint output: normalized growth of `CC1(C)O[C@H]2CC(=O)OC[C@]23[C@H]2CC[C@@]4(C)[C@H](c5ccoc5)OC(=O)[C@H]5O[C@]54[C@]2(C)C(=O)C[C@@H]13` . Value?
-- reply 0.985

-- ask Form field: reported normalized growth of COc1ccc2c(c1C(C)C)CCC1C(C)(C)C(=O)CCC21C (centres undefined)
-- reply 0.977

-- ask Can you look up the measured normalized growth of CC1(C)C=CC(=O)[C@@]2(C)C1CC(=O)[C@]1(C)C2CC[C@@]2(C)[C@H](c3ccoc3)OC(=O)C3OC321 (some centres undefined) for me?
-- reply 1.02

-- ask If you can, please state the reported normalized growth value of CC1(C)C2CC(=O)[C@]3(C)C(CC[C@@]4(C)[C@H](c5ccoc5)OC(=O)[C@H]5O[C@]543)[C@@]2(C)C(=O)C[C@H]1O (some centres undefined) .
-- reply 1.01

-- ask Reported normalized growth, compound `CCN1C[C@]2(C)CC[C@H](OC)[C@]34C2[C@H](O)[C@]2(OCO[C@@]25C[C@H](OC)[C@H]2C[C@]3(O)C5[C@H]2O)C14` : ____
-- reply 0.998

-- ask Requested read-out: normalized growth. Entry: `Cc1cc(OC(=O)c2c(C)cc(O)cc2O)cc(O)c1C(=O)O`
-- reply 0.967

-- ask Need normalized growth of `CCC(=O)c1c(O)cc(O)cc1O` , thanks.
-- reply 0.975

-- ask Record request: normalized growth value, item C[C@@H]1CC[C@@]2(OC1)OC1CC3C4CC=C5C[C@@H](O)CC[C@]5(C)C4CC[C@]3(C)C1[C@@H]2C (some centres undefined)
-- reply 0.973

-- ask Entry CC(C)c1c(O)ccc2c1CCC1C(C)(C)CCC[C@]21C (some centres undefined) : reported normalized growth = ?
-- reply 0.835

-- ask I have this compound here, `CCc1cccc(CC)c1N(COC)C(=O)CCl` , and I need its recorded normalized growth.
-- reply 1.02

-- ask Data request, read-out normalized growth, for CC1(C)C2CC(=O)[C@]3(C)C(CC[C@@]4(C)[C@H](c5ccoc5)OC(=O)C5OC543)[C@@]2(C)[C@@H](O)C[C@H]1O (some centres undefined)
-- reply 0.987
